Give Ratio for every item shown.
target: Monoamine transporters; serotonin & dopamine (Rattus norvegicus) (UniProt P31652+P23977); test: Ratio of Ki at 5-HT transporter and Ki at dopamine transporter.; type: protein assay
Sequence (P31652 whole entry): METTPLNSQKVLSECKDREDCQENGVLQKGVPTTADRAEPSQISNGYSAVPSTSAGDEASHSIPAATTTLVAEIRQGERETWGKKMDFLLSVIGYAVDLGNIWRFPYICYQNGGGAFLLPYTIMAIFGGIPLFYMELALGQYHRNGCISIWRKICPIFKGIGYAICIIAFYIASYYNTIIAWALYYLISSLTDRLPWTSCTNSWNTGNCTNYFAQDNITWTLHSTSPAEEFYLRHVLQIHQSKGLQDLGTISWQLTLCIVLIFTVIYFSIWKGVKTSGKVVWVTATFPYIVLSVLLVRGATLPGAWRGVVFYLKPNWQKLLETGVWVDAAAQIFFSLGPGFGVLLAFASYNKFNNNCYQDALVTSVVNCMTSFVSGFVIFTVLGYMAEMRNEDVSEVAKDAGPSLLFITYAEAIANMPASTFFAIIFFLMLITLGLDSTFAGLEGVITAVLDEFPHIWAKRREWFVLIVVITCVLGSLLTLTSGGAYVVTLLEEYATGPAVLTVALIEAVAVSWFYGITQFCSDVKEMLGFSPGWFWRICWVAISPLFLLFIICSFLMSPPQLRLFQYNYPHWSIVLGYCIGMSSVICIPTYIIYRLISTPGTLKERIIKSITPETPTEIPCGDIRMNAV
Sequence (P23977 whole entry, looked up, one chain of several): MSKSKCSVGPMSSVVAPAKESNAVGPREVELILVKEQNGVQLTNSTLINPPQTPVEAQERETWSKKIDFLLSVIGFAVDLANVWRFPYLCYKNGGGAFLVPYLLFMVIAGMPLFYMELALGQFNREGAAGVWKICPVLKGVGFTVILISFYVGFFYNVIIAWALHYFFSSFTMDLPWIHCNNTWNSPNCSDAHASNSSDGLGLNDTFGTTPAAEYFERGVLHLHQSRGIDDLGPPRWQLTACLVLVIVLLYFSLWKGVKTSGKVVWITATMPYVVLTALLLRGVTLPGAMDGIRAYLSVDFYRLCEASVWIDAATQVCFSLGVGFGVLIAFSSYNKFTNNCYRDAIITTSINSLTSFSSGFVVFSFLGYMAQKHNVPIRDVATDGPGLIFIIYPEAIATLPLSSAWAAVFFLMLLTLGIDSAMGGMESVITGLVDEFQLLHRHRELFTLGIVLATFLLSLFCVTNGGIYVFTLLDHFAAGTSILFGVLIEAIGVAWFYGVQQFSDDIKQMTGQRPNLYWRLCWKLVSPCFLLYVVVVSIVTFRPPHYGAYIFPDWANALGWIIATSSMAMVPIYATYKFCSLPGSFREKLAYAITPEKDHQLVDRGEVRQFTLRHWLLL
Keep the answer to the number alone.

Request: Quote Monoamine transporters; serotonin & dopamine (Rattus norvegicus) (UniProt P31652+P23977) Ratio for entry `COC(=O)[C@@H]1CN(CCc2ccccc2)CC[C@@H]1c1ccc(Cl)cc1` .
Result: 1.84

Request: State recorded Ratio with Monoamine transporters; serotonin & dopamine (Rattus norvegicus) (UniProt P31652+P23977), entry COC(=O)C1CN(CCC(c2ccccc2)c2ccccc2)CC[C@@H]1c1ccc(Cl)cc1 (stereo not given in full) , no comment.
Result: 0.63

Request: Please look at COC(=O)C1CN(Cc2ccc(O)cc2)CC[C@@H]1c1ccc(Cl)cc1 (stereo not given in full) and tell me its recorded Ratio on Monoamine transporters; serotonin & dopamine (Rattus norvegicus) (UniProt P31652+P23977).
Result: 1.64

Request: Report value only: Ratio, Monoamine transporters; serotonin & dopamine (Rattus norvegicus) (UniProt P31652+P23977), COC(=O)C1CN(C(C)C)CC[C@@H]1c1ccc(Cl)cc1 (stereo not given in full)
Result: 0.54

Request: Using Monoamine transporters; serotonin & dopamine (Rattus norvegicus) (UniProt P31652+P23977) as the test system, report measured Ratio of Cc1noc(C2CN(C)CC[C@@H]2c2ccc(Cl)cc2)n1 (stereo not given in full) .
Result: 31.8

Request: Under Monoamine transporters; serotonin & dopamine (Rattus norvegicus) (UniProt P31652+P23977), report Ratio for Cc1noc(C2CNCC[C@@H]2c2ccc(Cl)cc2)n1 (stereo not given in full)
Result: 1.97

Request: Given OCC1CNCC[C@@H]1c1ccc(Cl)cc1 (stereo not given in full) , report its Ratio on Monoamine transporters; serotonin & dopamine (Rattus norvegicus) (UniProt P31652+P23977).
Result: 0.29

Request: Answer briefly: Ratio recorded on Monoamine transporters; serotonin & dopamine (Rattus norvegicus) (UniProt P31652+P23977) for `COC(=O)[C@@H]1CN(Cc2ccccc2)CC[C@@H]1c1ccc(Cl)cc1`
Result: 0.67

Request: Give Ratio for `CN1CC[C@H](c2ccc(Cl)cc2)[C@@H](CO)C1` tested on Monoamine transporters; serotonin & dopamine (Rattus norvegicus) (UniProt P31652+P23977).
Result: 3.12

Request: Check Monoamine transporters; serotonin & dopamine (Rattus norvegicus) (UniProt P31652+P23977) data and give Ratio for COC(=O)C1CN(CCCc2ccccc2)CC[C@@H]1c1ccc(Cl)cc1 (stereo not given in full) .
Result: 4.04

Request: Jot down Ratio (Monoamine transporters; serotonin & dopamine (Rattus norvegicus) (UniProt P31652+P23977)) of `COC(=O)[C@H]1CN(CCc2ccccc2)CC[C@@H]1c1ccc(Cl)cc1` .
Result: 2.68

Request: Enter measured Ratio, system Monoamine transporters; serotonin & dopamine (Rattus norvegicus) (UniProt P31652+P23977), for the molecule shown: COC(=O)C1CNCC[C@@H]1c1ccc(Cl)cc1 (stereo not given in full)
Result: 1.56

Request: # lookup: Monoamine transporters; serotonin & dopamine (Rattus norvegicus) (UniProt P31652+P23977) Ratio, key = COC(=O)C1CN(S(=O)(=O)c2ccccc2)CC[C@@H]1c1ccc(Cl)cc1 (stereo not given in full)
Result: 1.85

----------
Would you kindly list Ratio for each of these compounds?
target: Monoamine transporters; Norepininephrine & dopamine (Rattus norvegicus) (UniProt P23977+Q9WTR4); assay: Ratio of Ki at norepinephrine transporter and Ki at dopamine transporter.; format: protein assay
Lab note: write the figure by itself, no unit.

Request: Return Ratio for the following compound: COC(=O)C1CN(S(=O)(=O)c2ccccc2)CC[C@@H]1c1ccc(Cl)cc1 (stereo not given in full)
Result: 0.83

Request: Give Ratio for the following compound: COC(=O)C1CN(CCCc2ccccc2)CC[C@@H]1c1ccc(Cl)cc1 (stereo not given in full)
Result: 0.6

Request: Using the record for COC(=O)C1CN(CCC(c2ccccc2)c2ccccc2)CC[C@@H]1c1ccc(Cl)cc1 (stereo not given in full) , state its measured Ratio.
Result: 1.01

Request: In one line, give reported Ratio of the entry COC(=O)C1CNCC[C@@H]1c1ccc(Cl)cc1 (stereo not given in full) .
Result: 0.03

Request: Entry COC(=O)C1CN(Cc2ccc(O)cc2)CC[C@@H]1c1ccc(Cl)cc1 (stereo not given in full) needs its Ratio filled in; supply it.
Result: 0.67

----------
target: Sodium-dependent dopamine transporter (Rattus norvegicus); experiment: Inhibition of high affinity uptake of [3H]-DA by dopamine transporter in nerve endings obtained from rat brain.
Sequence (P23977 whole entry): as the sequence (P23977 whole entry, looked up, one chain of several) above
Measure: pKi
Remember the convention: pKi equals -log10 of concentration in molar.

Request: Answer with the recorded pKi of COC(=O)C1CN(Cc2ccc(O)cc2)CC[C@@H]1c1ccc(Cl)cc1 (stereo partly specified) only.
Result: 5.79

Request: For COC(=O)C1CN(C(C)C)CC[C@@H]1c1ccc(Cl)cc1 (stereo partly specified) , write its pKi.
Result: 5.16

Request: Write down pKi measured for item COC(=O)C1CNCC[C@@H]1c1ccc(Cl)cc1 (stereo partly specified)
Result: 6.55

Request: State, in one line, measured pKi of `COC(=O)[C@H]1CN(CCc2ccccc2)CC[C@@H]1c1ccc(Cl)cc1`
Result: 5.97

Request: Give me measured pKi, please, for this compound: COC(=O)C1CN(CCCF)CC[C@@H]1c1ccc(Cl)cc1 (stereo partly specified)
Result: 5.37

Request: Provide pKi value for the following compound: `CN1CC[C@H](c2ccc(Cl)cc2)[C@@H](CO)C1`
Result: 6.30

----------
biological target: Sodium-dependent dopamine transporter (Rattus norvegicus); experiment: 373 Ability to inhibit high affinity uptake of [3H]DA using rat nerve endings obtained from brain regions enriched in dopamine transporter
Measure: pKi
Convention used: pKi is expressed as -log10 of the molar concentration.

Request: Complete the entry with pKi for Cc1noc(C2CNCC[C@@H]2c2ccc(Cl)cc2)n1 (stereo partly specified)
Result: 6.72

----------
biological target: UniProtKB P31652; test: Inhibition of high affinity uptake of [3H]5-HT by serotonin transporter in nerve endings obtained from rat brain.
For each record, write down the corresponding Ki.
The answer is to be given in µM; state only the numeric part.

Request: Give a short answer stating reported Ki for `COC(=O)[C@@H]1CN(CCc2ccccc2)CC[C@@H]1c1ccc(Cl)cc1` .
Result: 1.88

Request: Output measured Ki for this item: COC(=O)C1CN(C(C)C)CC[C@@H]1c1ccc(Cl)cc1 (some centres not stated)
Result: 3.74

Request: For Cc1noc(C2CNCC[C@@H]2c2ccc(Cl)cc2)n1 (some centres not stated) , write its Ki.
Result: 0.373

Request: Please look at this compound and report its Ki: `COC(=O)[C@H]1CN(CCc2ccccc2)CC[C@@H]1c1ccc(Cl)cc1`
Result: 2.89

Request: Output measured Ki for this item: COC(=O)C1CN(CCC(c2ccccc2)c2ccccc2)CC[C@@H]1c1ccc(Cl)cc1 (some centres not stated)
Result: 2.69

Request: Write down Ki measured for item COC(=O)C1CNCC[C@@H]1c1ccc(Cl)cc1 (some centres not stated)
Result: 0.434

Request: Give Ki for COC(=O)C1CN(Cc2ccc(O)cc2)CC[C@@H]1c1ccc(Cl)cc1 (some centres not stated)
Result: 2.65

Request: Check the records and state Ki for `CN1CC[C@H](c2ccc(Cl)cc2)[C@@H](CO)C1`
Result: 1.55

Request: Recall and state the measured Ki for COC(=O)C1CN(CCCc2ccccc2)CC[C@@H]1c1ccc(Cl)cc1 (some centres not stated) .
Result: 3.27

Request: Give a short answer stating reported Ki for OCC1CNCC[C@@H]1c1ccc(Cl)cc1 (some centres not stated) .
Result: 0.239

Request: Read off the recorded Ki for Cc1noc(C2CN(C)CC[C@@H]2c2ccc(Cl)cc2)n1 (some centres not stated)
Result: 5.96

Request: Kindly indicate its recorded Ki. Item: `COC(=O)[C@@H]1CN(Cc2ccccc2)CC[C@@H]1c1ccc(Cl)cc1`
Result: 2.19

Request: Tell me its Ki given COC(=O)C1CN(S(=O)(=O)c2ccccc2)CC[C@@H]1c1ccc(Cl)cc1 (some centres not stated) as the entry.
Result: 36.1

----------
target: Monoamine transporters; Norepininephrine & dopamine (Rattus norvegicus) (UniProt P23977+Q9WTR4); assay: Ratio of Ki at norepinephrine transporter and Ki at dopamine transporter.; format: protein assay
Each record is given 1 if its reported Ratio is strictly below 0.3. Records at or above 0.3 are given -1.

Request: # strict comparison: is reported Ratio < 0.3? input = COC(=O)C1CN(CCCF)CC[C@@H]1c1ccc(Cl)cc1 (stereo partly specified)
Result: 1

Request: # TODO verify Ratio < 0.3 strictly for this compound: COC(=O)C1CN(C(C)C)CC[C@@H]1c1ccc(Cl)cc1 (stereo partly specified)
Result: 1

Request: Report whether reported Ratio is lower than 0.3 (strictly) for `CN1CC[C@H](c2ccc(Cl)cc2)[C@@H](CO)C1`
Result: -1

Request: A record lists COC(=O)C1CN(CCCCl)CC[C@@H]1c1ccc(Cl)cc1 (stereo partly specified) . Is its Ratio below 0.3?
Result: 1

Request: Is the reported Ratio for Cc1noc(C2CN(C)CC[C@@H]2c2ccc(Cl)cc2)n1 (stereo partly specified) strictly below 0.3?
Result: -1

Request: # check: Ratio < 0.3 for OCC1CNCC[C@@H]1c1ccc(Cl)cc1 (stereo partly specified)
Result: 1

Request: # strict comparison: is reported Ratio < 0.3? input = Cc1noc(C2CNCC[C@@H]2c2ccc(Cl)cc2)n1 (stereo partly specified)
Result: 1

Request: Find out if reported Ratio for `COC(=O)[C@@H]1CN(Cc2ccccc2)CC[C@@H]1c1ccc(Cl)cc1` is less than 0.3
Result: -1

Request: Problem: For the compound `COC(=O)[C@@H]1CN(CCc2ccccc2)CC[C@@H]1c1ccc(Cl)cc1` , is Ratio under 0.3?
Result: 1

Request: Would you kindly verify if Ratio of `COC(=O)[C@H]1CN(CCc2ccccc2)CC[C@@H]1c1ccc(Cl)cc1` is strictly less than 0.3?
Result: 1

Request: In the record for CCOC(=O)CCN1CC[C@H](c2ccc(Cl)cc2)C(C(=O)OC)C1 (stereo partly specified) , is Ratio less than 0.3?
Result: 1
